Experiment: NCI Yeast Anticancer Drug Screen. Data for the sgs1 mgt1 strain (AID 161)
Conditions: S. cerevisiae sgs1 mgt1 strain, at 50.0 µM (retest, dose inferred, filed as 5.0), active compounds read high
About 79,000 compounds went through this panel and 15% of them were active in at least one assay; those are over-represented in the sample as a whole.
Given measured growth inhibition, output Met if it is greater than or equal to 90% and Not met if not.

# count of solved cases: 4
[
  {
    "compound": "O=C(CCN1CCCCC1)N1CCc2c([nH]c3ccccc23)C1c1cccnc1 (stereo unspecified)",
    "class": "Not met"
  },
  {
    "compound": "Cc1ccc(CC2(C(=O)O)Cc3ccc(C)cc3C2)cc1 (stereo unspecified)",
    "class": "Met"
  },
  {
    "compound": "COc1c2c(c(C)c3ccc4ccccc4c13)CCN=C2",
    "class": "Met"
  },
  {
    "compound": "CCCCC(CC)COP(=O)(OCC(CC)CCCC)OCC(CC)CCCC (stereo unspecified)",
    "class": "Not met"
  }
]

In the following, a different compound is considered.
Textbook exercise: given the entry OB1c2ccccc2CCc2ccccc21 , state whether its growth inhibition is greater than or equal to 90%.
Met
